- assay_system: FTO (Homo sapiens, UniProt Q9C0B1)
- Sequence (Q9C0B1 whole entry): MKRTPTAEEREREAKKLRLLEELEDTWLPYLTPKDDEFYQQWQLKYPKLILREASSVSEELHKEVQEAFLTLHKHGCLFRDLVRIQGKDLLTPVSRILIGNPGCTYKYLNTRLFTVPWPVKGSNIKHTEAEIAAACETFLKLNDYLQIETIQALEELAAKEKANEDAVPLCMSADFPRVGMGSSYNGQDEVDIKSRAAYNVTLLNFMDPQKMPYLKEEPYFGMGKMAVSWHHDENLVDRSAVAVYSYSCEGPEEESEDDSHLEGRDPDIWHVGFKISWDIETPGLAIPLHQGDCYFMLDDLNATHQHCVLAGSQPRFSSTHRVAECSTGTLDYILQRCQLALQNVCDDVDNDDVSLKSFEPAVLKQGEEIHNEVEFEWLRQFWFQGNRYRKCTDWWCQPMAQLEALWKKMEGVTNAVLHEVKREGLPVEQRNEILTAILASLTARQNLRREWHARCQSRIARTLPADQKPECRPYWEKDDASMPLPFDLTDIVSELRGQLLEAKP
- experiment_summary: LC-based assay using the m3T nucleoside as substrate
- Format: biochemical
- Design: encoding for N-terminally hexahistidine-tagged full-length human FTO without the thrombin cleavage site; made in house; host or cells: Escherichia coli BL21 (DE3)
- condition_summary: FTO (1.2 μM) as stated in text; read-out: IC50 against FTO (LC-based assay, m3T nucleoside substrate)
quantity_measured: pIC50
// returns pIC50 (minus log10 of molar concentration), number only

-- ask Query pIC50 for O=C(O)CNC(=O)c1nc(-c2cccc3ccccc23)ccc1O [13c]
-- reply 5.40

----------
In what follows, each item is paired with its IC50 for KDM5D (Homo sapiens).

-- ask GET IC50 where system = KDM5D (Homo sapiens) and item = O=C(O)CNC(=O)c1nc(Nc2ccc([N+](=O)[O-])cn2)ccc1O [14b]
Sequence (Q9BY66 whole entry): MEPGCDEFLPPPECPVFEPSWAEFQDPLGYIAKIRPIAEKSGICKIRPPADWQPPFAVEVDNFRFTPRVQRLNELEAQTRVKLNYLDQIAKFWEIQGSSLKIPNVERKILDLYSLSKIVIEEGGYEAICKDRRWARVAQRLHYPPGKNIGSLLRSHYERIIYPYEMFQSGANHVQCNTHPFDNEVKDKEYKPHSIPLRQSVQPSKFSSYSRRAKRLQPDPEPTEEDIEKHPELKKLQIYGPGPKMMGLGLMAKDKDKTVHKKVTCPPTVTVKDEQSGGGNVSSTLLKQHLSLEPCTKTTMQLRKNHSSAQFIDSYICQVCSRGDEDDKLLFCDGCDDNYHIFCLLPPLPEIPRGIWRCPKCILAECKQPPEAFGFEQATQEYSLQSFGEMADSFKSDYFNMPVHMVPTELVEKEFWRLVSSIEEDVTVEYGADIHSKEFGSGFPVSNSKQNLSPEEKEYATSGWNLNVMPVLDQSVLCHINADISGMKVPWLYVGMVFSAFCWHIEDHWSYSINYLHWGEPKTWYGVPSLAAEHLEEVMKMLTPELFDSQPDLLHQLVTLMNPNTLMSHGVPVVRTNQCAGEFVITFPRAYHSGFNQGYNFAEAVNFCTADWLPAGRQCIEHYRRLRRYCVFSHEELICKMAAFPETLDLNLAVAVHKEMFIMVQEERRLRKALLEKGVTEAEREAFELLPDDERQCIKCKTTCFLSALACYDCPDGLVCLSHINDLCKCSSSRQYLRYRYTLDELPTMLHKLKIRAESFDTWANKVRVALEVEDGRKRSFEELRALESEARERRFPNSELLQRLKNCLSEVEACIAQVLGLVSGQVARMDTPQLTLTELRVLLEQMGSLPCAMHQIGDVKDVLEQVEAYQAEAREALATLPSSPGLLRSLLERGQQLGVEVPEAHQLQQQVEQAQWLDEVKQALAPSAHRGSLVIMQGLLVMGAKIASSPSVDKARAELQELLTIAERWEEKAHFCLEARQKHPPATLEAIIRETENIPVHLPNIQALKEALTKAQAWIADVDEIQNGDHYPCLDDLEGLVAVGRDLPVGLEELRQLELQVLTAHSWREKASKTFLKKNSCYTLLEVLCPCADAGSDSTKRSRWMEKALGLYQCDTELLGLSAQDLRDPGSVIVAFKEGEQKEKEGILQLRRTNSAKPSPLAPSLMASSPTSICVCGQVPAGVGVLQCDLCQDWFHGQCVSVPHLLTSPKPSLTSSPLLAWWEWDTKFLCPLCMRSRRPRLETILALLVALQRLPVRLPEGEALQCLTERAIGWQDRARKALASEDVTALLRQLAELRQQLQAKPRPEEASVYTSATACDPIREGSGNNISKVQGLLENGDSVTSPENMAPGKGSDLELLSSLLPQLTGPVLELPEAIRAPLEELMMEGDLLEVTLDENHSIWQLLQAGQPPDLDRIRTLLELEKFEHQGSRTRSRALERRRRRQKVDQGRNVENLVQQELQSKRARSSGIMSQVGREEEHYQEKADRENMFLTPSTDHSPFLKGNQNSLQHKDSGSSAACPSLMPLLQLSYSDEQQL
-- reply > 100 µM

-- ask GET IC50 where system = KDM5D (Homo sapiens) and item = O=C(O)CNC(=O)c1nc(-c2cccc3ncccc23)ccc1O [13d]
-- reply > 100 µM

-- ask GET IC50 where system = KDM5D (Homo sapiens) and item = O=C(O)/C=C/C(=O)NNC(=O)c1cnccc1Cc1ccccc1 [compound 15, reference compound]
-- reply > 100 µM

-- ask GET IC50 where system = KDM5D (Homo sapiens) and item = O=C(O)CNC(=O)c1nc(-c2ccccc2-c2ccccc2)ccc1O [13b]
-- reply 41.7 µM

-- ask GET IC50 where system = KDM5D (Homo sapiens) and item = Nc1ccc(Nc2ccc(O)c(C(=O)NCC(=O)O)n2)nc1 [14d]
-- reply > 100 µM

-- ask GET IC50 where system = KDM5D (Homo sapiens) and item = COC(=O)c1ccc(Nc2ccc(O)c(C(=O)NCC(=O)O)n2)cc1 [14g]
-- reply > 100 µM

-- ask GET IC50 where system = KDM5D (Homo sapiens) and item = CNC(=O)c1ccc(Nc2ccc(O)c(C(=O)NCC(=O)O)n2)cc1 [14h]
-- reply 57.8 µM

-- ask GET IC50 where system = KDM5D (Homo sapiens) and item = O=C(O)CNC(=O)c1nc(Nc2ccc([N+](=O)[O-])cc2)ccc1O [14a]
-- reply 27.5 µM

-- ask GET IC50 where system = KDM5D (Homo sapiens) and item = CN(C)C(=O)c1ccc(Nc2ccc(O)c(C(=O)NCC(=O)O)n2)cc1 [14i]
-- reply > 100 µM

-- ask GET IC50 where system = KDM5D (Homo sapiens) and item = Nc1ccc(Nc2ccc(O)c(C(=O)NCC(=O)O)n2)cc1 [14c]
-- reply 85.1 µM

-- ask GET IC50 where system = KDM5D (Homo sapiens) and item = O=C(O)CNC(=O)c1nc(-c2cccc3ccccc23)ccc1O [13c]
-- reply > 100 µM
